Molecular target: T1, human CD112R on antigen-specific CD8+ T cells (human, UniProt Q6DKI7 1-326)
T1 sequence (looked up): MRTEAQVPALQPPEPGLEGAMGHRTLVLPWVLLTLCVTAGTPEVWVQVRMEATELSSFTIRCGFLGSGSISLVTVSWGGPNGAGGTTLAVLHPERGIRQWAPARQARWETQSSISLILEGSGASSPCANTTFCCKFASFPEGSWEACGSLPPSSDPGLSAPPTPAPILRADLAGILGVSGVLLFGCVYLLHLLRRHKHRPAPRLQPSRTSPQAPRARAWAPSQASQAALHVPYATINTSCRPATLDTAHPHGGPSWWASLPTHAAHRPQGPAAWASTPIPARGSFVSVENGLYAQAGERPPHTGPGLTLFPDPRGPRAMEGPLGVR
Assay: cell-based or functional assay
Provide the reported IFN-γ(pg/ml) at 50µg/ml antibody of each item.
One number for each entry, in pg/mL.

C41 (antibody, human IgG1, kappa, V domains shown) VH: EVQLQQSGPELVKPGASVKISCKASGNTFTDYYINWVKQSHGKSLEWIGDIEPNNGGTNYNQKFKGKATLTVDKSSSTAYMELRSLTSEDSAIYYCATLYFDYWGQGTTLTVSS VL: DIVMTQSPSSLSVSAGEKVTMSCKSSQSLLNSGNQKNYLAWYQQKPGQPPKLLIYGASTRESGVPDRFTGSGSGTDFTLTISSVQAEDLAVYYCQNDHSYPFTFGSGTKLEIKR    659
anti-CD112R antibody CHA.7.518 (antibody, V domains shown, synthesised according to WO/2016/134333; also called Tab-1; Tab 1) VH: QVQLVQSGAEVKKPGASVKVSCKASGYTFTDYNINWVRQAPGQGLEWMGYIYPYIGGSGYAQKFQGRVTMTRDTSTSTVYMELSSLRSEDTAVYYCAREDKTARNAMDYWGQGTLVTVSS VL: DIQMTQSPSSLSASVGDRVTITCRVSENIYSNLAWYQQKPGKAPKLLIYEATNLAEGVPSRFSGSGSGTDFTLTISSLQPEDFATYYCQHFWGTPYTFGQGTKLEIKR    763
C4 (antibody, human IgG1, kappa, V domains shown) VH: EVQLQQSGPELVKPGASVKISCKASGYTFTDYFMNWVKQSHGKSLEWIGDIIPNNDSPNYNQKFKGKATLTVDKSSNTAYMELRSLTSEDSAVYYCASGYFDVWGTGTTVTVSS VL: DIVMTQSPSSLSVSAGEKVTMSCKSSQSLLNSGNQKNFLAWYQQKPGQPPKLLIYGTSTRESGVPDRFTGSGSGTDFTLTISSVQAEDLAVYYCQNDHSYPWTFGGGTKLEIKR    875
C14 (antibody, human IgG1, kappa, V domains shown) VH: QVQLQQPGAELVRPGTSVKLSCKASGNTFTSYWMHWVKQRPGQGHEWIGVIDASDSNTKYNQKFKGKATLTVDTSSSTAYMQLSSLTSEDSAVYYCARYYSGSSYGLDYWGQGTTLTVSS VL: DIQMTQTASSLSASLGDRVTISCRASQDISNYLNWYQQKPDGTVKLLIYYTSRLHSGVPSRFSGSGSGTDFSLTITHLEQEDIASYFCQQGNMFPPTFGGGTKLEIKR    759

# input for lookup
Q: Item under review: C8 (antibody, human IgG1, kappa, V domains shown) VH: EVQLVASGGGLVKPGGSLKLSCAASGFTFSDYYMFWVRQTPEKRLEWVATISDGGGYIYYPDSVKGRFTISRDNDRNSLYLQMSSLKSEDTAIYYCGREDFWGQGTSVTVSS VL: DIQMTQSPSSLSASLGERVSLTCRASQDIGRSLNWLQQEPDGSVRRLIYATSRLDSGVPKRFSGSRSGSDYSLTISSLESEDFVDYYCLQYASFPYTFGGGTKLEIKR . Reported IFN-γ(pg/ml) at 50µg/ml antibody?
Ans: 819
